system: Caco-2; test: cell viability relative to DMSO; higher = less toxic; settings: 72 h; 1 nM
Structures can show the parent of a compound that is named as a salt.
Each entry below lists one item and its recorded cell viability value.
Just so you know, I need the unit written after the number.

Use the examples below as a reference point.
Cc1ccccc1CN1C2=NCCN2C(=O)C2=C1CCN(Cc1ccccc1)C2 [TIC10] :: 110%
CCN1CCN(c2ccc(C(C)(C)NC(=O)c3cc4[nH]c5ccccc5c(=O)c4cc3F)cn2)CC1 :: 102%
O=C1CC[C@@]2(O)[C@H]3Cc4ccc(O)c5c4[C@@]2(CCN3CC2CC2)[C@H]1O5 [NALTREXONE HYDROCHLORIDE] :: 107%
CCCCNc1nc(N)c2[nH]c(=O)n(Cc3ccc(OCCN(C)C)nc3)c2n1 [DSR-6434] :: 93.3%
CC1(C)[C@@H](O)CC[C@]2(C)[C@H]3C(=O)C=C4[C@@H]5C[C@@](C)(C(=O)O)CC[C@]5(C)CC[C@@]4(C)[C@]3(C)CC[C@@H]12 [enoxolone] :: 96.6%
Cc1cc(C)c2c(N)c(C(=O)NCc3ccc(Cl)cc3)sc2n1 :: 95.7%
C[C@H](CCC(=O)O)[C@H]1CC[C@H]2[C@@H]3C[C@H](O)[C@@H]4C[C@H](O)CC[C@]4(C)[C@H]3CC[C@]12C [Hyodeoxycholic acid (HDCA)] :: 88.5%
COc1cc2c(c(OC)c1OC)-c1ccc(OC)c(=O)cc1[C@@H](NC(C)=O)CC2 [colchicine] :: 97.2%
CN(C(=O)Cc1ccccc1)[C@H](CN1CCCC1)c1ccccc1 [N-MPPP] :: 111%
O=C(O)c1cc2occc2[nH]1 :: 91.3%

Documented cell viability of CCCCCCCCCCCC1=C(O)C(=O)C=C(O)C1=O [embelin] : 98.2%

The recorded cell viability for entry CCCCCCCC/C=C/CCCCCCCC(=O)OC[C@H]1O[C@@H](n2ccc(N)nc2=O)C(F)(F)[C@@H]1O [gemcitabine-elaidate] equals 95.3%

The compound listed as C[N+](C)(C)CCOP(=O)(O)OC[C@H](O)CO [choline-alfoscerate] shows cell viability equal to 106%

Recorded cell viability (compound O=C(O)CCc1ccc(NCc2cccc(Oc3ccccc3)c2)cc1 [GW-9508] ): 95.4%

----------
tested on: HepG2; assay: cell viability relative to DMSO; higher = less toxic; conditions: 72 h; 1 nM
Some compounds, each annotated with its measured cell viability.
The answer is to be given in %; state only the numeric part.

// solved cases for cell viability follow
Cc1nc(-c2cn3c(n2)-c2ccc(-c4cnn(C(C)(C)C(N)=O)c4)cc2OCC3)n(C(C)C)n1 [taselisib] :: 97.4
Cc1cccc(-c2n[nH]cc2-c2ccc(F)c(-c3cnn(CCO)c3)c2)n1 :: 103
C[C@H](CCC(=O)O)[C@H]1CC[C@H]2[C@@H]3C[C@H](O)[C@@H]4C[C@H](O)CC[C@]4(C)[C@H]3CC[C@]12C [Hyodeoxycholic acid (HDCA)] :: 95.6
Oc1nc(O)c2cn[nH]c2n1 [oxypurinol] :: 108
CC(C)N(CCC(=O)c1ccc2ccccc2c1)Cc1ccccc1 :: 98.4

Entry `CCCCOc1ccc(-c2cncc(C(=O)NCc3cccnc3N3CCOCC3)c2)cc1Cl` , HepG2 data, cell viability value: 99.7

Reported cell viability (HepG2) for entry C[n+]1c2cc(N)ccc2cc2ccc(N)cc21.Nc1ccc2cc3ccc(N)cc3nc2c1 [acriflavine] is 91.6

Value (cell viability, HepG2) for record OCCN1CCN(CC/C=C2/c3ccccc3Sc3ccc(Cl)cc32)CC1 [zuclopenthixol] = 93.4

Measured cell viability for this entry Oc1cccc(Nc2ncc(F)c(Nc3cccc(O)c3)n2)c1 [R112] on HepG2: 106

Bench note, HepG2: OC[C@@H](O)[C@@H](O)[C@H](O)[C@@H](O)CO [sorbitol] , cell viability reads 95.3

Entry COc1ccccc1-c1c[nH]c2ncc(-c3cncc(C(=O)N(C)C)c3)cc12 [PPY-A] , HepG2 data, cell viability value: 120

----------
system: U2OS; assay: cell viability relative to DMSO; higher = less toxic; settings: 72 h; 10000 nM
Structures can show the parent of a compound that is named as a salt.
Each item that follows carries a reported cell viability.
Reply with just the number (in %).

Example results:
O=C(N[C@H]1CN2CCC1CC2)c1cc2cccc(Cl)c2s1 [EVP-6124] :: 95.2
CNCCc1cnc[nH]1 [N-alpha-methylhistamine-dihydrochloride] :: 98
Cc1ccc(S(=O)(=O)NC(=O)NN2CC3CCCC3C2)cc1 (stereo not given) [gliclazide] :: 101
O=C(c1ccccn1)c1cnn2c(-c3ccncc3)ccnc12 [ocinaplon] :: 99.2

Briefly, cell viability measured for `O=C(O)c1cc2occc2[nH]1` : 98.7

----------
tested on: Calu-3; assay: cell viability relative to DMSO; higher = less toxic; conditions: 72 h; 10 nM
// cell viability lookup, one value per entry
Hi! Could you send only the number? It should be in %, unit omitted.

Here is how some compounds turned out for cell viability.
c1ccc(CN(CC2=NCCN2)c2ccccc2)cc1 [antazoline] :: 105
CCCCCCCC/C=C/CCCCCCCC(=O)OC[C@H]1O[C@@H](n2ccc(N)nc2=O)C(F)(F)[C@@H]1O [gemcitabine-elaidate] :: 90.1
C[C@H](CCC(=O)O)[C@H]1CC[C@H]2[C@@H]3C[C@H](O)[C@@H]4C[C@H](O)CC[C@]4(C)[C@H]3CC[C@]12C [Hyodeoxycholic acid (HDCA)] :: 103
O=C(O)c1ccccc1NCCc1ccccc1 [tromaril] :: 94.5
CC(C)OC(=O)C(C)(C)Oc1ccc(C(=O)c2ccc(Cl)cc2)cc1 [fenofibrate] :: 111

cell viability for CN(c1ccc(NC(=O)Nc2ccccc2)cc1)S(=O)(=O)c1cnn(-c2ccc(F)cc2)c1 [BTT-3033] is 104

The reported cell viability of the compound `CC(C)N(CCC(=O)c1ccc2ccccc2c1)Cc1ccccc1` was 102

get_value(item= COc1ccc(C2C(=O)c3ccccc3C2=O)cc1 [anisindione] , readout=cell viability) returns 106

Measured cell viability of Oc1nc(O)c2cn[nH]c2n1 [oxypurinol] : 108

----------
system: U2OS; experiment: cell viability relative to DMSO; higher = less toxic; details: 72 h; 100 nM
# Lookup of reported cell viability keyed by entry
Number in %, nothing else.

C[C@@H]1C(=O)O[C@H]2C[C@@]34[C@H]5C[C@@H](C(C)(C)C)[C@]36[C@@H](OC(=O)[C@@H]6O)O[C@@]4(C(=O)O5)[C@]21O [Ginkgolide A] :: 102
Cc1ncc(C[n+]2csc(CCO)c2C)c(N)n1 :: 102

Item: `O=C(O)c1ccccc1NCCc1ccccc1` | System: U2OS | cell viability: 101

----------
tested on: U2OS; assay: cell viability relative to DMSO; higher = less toxic; conditions: 72 h; 10 nM
Counter-ions that a name gives are not always drawn.
measuredQuantity: cell viability (%)
// return numeric value only (unit: %, not printed)

The examples below pair each entry with its known result.
C[C@H](NC(=O)/C(C#N)=C/c1cccc(Br)n1)c1ccccc1 :: 99.2
CCCc1nc(C(C)(C)O)c(C(=O)OCc2oc(=O)oc2C)n1Cc1ccc(-c2ccccc2-c2nnn[nH]2)cc1 :: 93.7
CC(C)(CO)[C@@H](O)C(=O)NCCC(=O)O :: 91.4
Cc1ncc(C[n+]2csc(CCO)c2C)c(N)n1 :: 104
CC(C)(C)c1ccc(S(=O)(=O)/C=C/C#N)cc1 :: 99

Form: molecule = `Cc1cccc(Cc2c[nH]cn2)c1C` ; cell viability = 98.2

Please fill in: cell viability reported for `Oc1nc(O)c2cn[nH]c2n1` = 102

Briefly, cell viability measured for CC[C@@H](c1cccc(O)c1)[C@@H](C)CN(C)C [Tapentadol (hydrochloride)] : 99.7

----------
relative viability EC50 by entry:
tested on: Calu-3; assay: relative viability EC50 (midpoint between 100% and the lowest measured viability); higher = less toxic; details: 72 h

Below, 5 molecules whose answers are already recorded.
CCCCNc1nc(N)c2[nH]c(=O)n(Cc3ccc(OCCN(C)C)nc3)c2n1 :: > 10 µM
CCOC(=O)Nc1ccc2c(c1)N(C(=O)CN(CC)CC)c1ccccc1CC2 :: > 10 µM
C[C@@H]1CN([C@H]2CC[C@](C#N)(c3ccc(F)cc3)CC2)CC[C@]1(C(=O)O)c1ccccc1 :: > 10 µM
O=C1CCCN1CC#CCN1CCCC1 [oxotremorine-sesquifumarate] :: > 10 µM
N[C@H](C(=O)O)c1cc(O)no1 :: > 10 µM

The reported relative viability EC50 value, Calu-3, for `C[C@](N)(Cc1ccc(O)cc1)C(=O)O` reads > 10 µM

Entry `CC(C)Oc1ccc2c(=O)c3cc(C(=O)O)ccc3oc2c1` , tested on Calu-3, has a reported relative viability EC50 of > 10 µM

// relative viability EC50 (Calu-3) for `CC(C)(C)c1ccc(S(=O)(=O)/C=C/C#N)cc1` = 2.69 µM

Entry `COc1ccc(C2C(=O)c3ccccc3C2=O)cc1` , tested on Calu-3, has a reported relative viability EC50 of > 10 µM

Measured relative viability EC50 for this entry `C/C(=N\NC(=S)N1CCC1)c1ccccn1` on Calu-3: 0.0907 µM

Values from the supplement of paper PMC13380429
